From: patent US20240294623A1

# experimental system: T1, hLTBP1-proTGFβ1 (human, UniProt Q14766 347-1721; P01137 30-390, limits assumed)
# T1 construct: Large latent complex (LLC): proTGFβ1 dimer disulfide-linked to one presenting molecule; recombinant, purified, biotinylated in BLI/SPR; The same id is used for the complex made by transfected cells in the reporter assays; also called human LTBP1-proTGFβ1 complex; LTBP1-ProTGFb1
# T1 sequence (Q14766 347-1721 limits assumed, chain 1 of 2): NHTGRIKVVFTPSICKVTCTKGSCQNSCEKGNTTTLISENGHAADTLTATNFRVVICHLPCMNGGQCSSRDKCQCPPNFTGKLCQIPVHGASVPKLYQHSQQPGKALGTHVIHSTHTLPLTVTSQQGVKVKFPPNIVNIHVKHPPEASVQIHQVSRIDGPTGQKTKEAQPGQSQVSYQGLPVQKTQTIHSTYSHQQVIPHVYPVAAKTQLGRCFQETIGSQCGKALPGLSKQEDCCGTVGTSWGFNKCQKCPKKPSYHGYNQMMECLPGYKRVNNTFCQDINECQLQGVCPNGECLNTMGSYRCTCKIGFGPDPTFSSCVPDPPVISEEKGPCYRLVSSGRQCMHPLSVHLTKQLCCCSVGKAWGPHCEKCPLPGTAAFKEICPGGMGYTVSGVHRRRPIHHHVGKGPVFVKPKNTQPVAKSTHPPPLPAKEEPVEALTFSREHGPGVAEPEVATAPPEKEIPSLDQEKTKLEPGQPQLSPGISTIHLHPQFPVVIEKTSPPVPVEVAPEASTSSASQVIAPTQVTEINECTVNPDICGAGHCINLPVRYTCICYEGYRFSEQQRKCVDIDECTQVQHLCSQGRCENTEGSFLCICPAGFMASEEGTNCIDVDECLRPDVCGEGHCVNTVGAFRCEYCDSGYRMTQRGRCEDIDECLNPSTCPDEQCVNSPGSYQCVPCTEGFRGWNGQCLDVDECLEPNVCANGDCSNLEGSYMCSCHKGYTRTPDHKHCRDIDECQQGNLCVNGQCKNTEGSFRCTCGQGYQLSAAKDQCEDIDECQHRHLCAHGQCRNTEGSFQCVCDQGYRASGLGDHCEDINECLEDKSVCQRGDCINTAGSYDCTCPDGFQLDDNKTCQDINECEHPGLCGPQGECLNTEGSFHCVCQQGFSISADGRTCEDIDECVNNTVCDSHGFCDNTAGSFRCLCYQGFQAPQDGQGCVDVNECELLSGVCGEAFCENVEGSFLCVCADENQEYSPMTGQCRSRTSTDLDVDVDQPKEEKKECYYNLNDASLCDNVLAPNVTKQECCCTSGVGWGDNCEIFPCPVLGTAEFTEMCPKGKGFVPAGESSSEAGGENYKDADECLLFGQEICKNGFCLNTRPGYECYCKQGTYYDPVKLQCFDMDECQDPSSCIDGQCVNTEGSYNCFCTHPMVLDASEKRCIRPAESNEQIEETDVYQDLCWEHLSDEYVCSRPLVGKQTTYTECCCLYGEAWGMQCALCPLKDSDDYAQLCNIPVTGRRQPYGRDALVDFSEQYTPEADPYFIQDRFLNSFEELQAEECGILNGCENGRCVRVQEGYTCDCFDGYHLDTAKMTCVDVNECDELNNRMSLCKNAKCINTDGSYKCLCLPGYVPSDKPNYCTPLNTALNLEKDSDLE
# T1 sequence (P01137 30-390 limits assumed, chain 2 of 2): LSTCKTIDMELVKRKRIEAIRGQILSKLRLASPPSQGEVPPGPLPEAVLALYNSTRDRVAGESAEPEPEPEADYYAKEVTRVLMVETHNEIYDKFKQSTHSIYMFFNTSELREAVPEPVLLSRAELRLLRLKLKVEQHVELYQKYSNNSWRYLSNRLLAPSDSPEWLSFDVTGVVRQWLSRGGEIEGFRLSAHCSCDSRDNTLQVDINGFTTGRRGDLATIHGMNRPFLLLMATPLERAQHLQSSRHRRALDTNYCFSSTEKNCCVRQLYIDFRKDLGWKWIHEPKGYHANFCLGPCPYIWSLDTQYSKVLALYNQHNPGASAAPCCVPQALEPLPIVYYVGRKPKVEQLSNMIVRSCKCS
# assay: MSD-SET, hIgG4
Recorded measurements of pKd, one per entry
Please express pKd as -log10 of the molar concentration.

binder="Ab32 (antibody, V domains shown) VH: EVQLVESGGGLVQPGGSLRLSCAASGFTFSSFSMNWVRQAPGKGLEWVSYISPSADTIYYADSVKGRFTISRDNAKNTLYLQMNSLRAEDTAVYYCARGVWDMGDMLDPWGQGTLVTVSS VL: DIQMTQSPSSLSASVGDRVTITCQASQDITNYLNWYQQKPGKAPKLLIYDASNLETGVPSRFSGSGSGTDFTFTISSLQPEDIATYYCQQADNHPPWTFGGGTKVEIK" reported_measurement=10.43

Consider the record given below.
Task: Item Ab24 (antibody, V domains shown) VH: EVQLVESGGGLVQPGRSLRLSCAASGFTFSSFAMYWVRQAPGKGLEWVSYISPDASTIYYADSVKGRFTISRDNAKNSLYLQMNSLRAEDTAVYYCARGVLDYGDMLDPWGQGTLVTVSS VL: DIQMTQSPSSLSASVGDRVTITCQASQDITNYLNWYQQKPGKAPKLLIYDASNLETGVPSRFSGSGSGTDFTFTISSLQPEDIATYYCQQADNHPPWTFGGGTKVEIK has what recorded pKd?
Output: 10.62
